assay: recombinant barcode read abundance after kanamycin selection (control-corrected) (log10(CPM+1)); higher = more efficient recombination; sequences stand for … in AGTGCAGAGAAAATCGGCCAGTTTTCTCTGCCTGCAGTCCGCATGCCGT…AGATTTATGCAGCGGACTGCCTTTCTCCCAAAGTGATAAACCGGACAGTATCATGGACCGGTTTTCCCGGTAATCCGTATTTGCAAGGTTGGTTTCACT; site = the 11-nt target;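 note: IS621 recombinase and bridge RNA in Escherichia coli cells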
recombinant barcode read abundance (log10) of 0.1 or higher: y. Under 0.1: n.

residueCodes	assignedClass
AGTTGTCCTTGGGTTCTAACCTGTTGCAT (site AGTTGTCCTAA)	n
CATGAGCCTTGGGTTCTAACCTGTTGCCT (site CATAAGCCTAG)	y
GGTCGACCTTGGGTTCTAACCTGTTGCCT (site CGTCGACCTAG)	n
ACTAGCTCTTGGGTTCTAACCTGTTGCCT (site ACTAGCTCTAG)	y
CTCCTCTCTTGGGTTCTAACCTGTTGCCT (site CTCCTCTCTAG)	y
CAGACTTCTTGGGTTCTAACCTGTTGCCT (site CCGACTTCTAG)	y
CAAGCACCTTGGGTTCTAACCTGTTGCTT (site CAACCACCTAA)	n
CGATTTCCTTGGGTTCTAACCTGTTGCAT (site CGATTTCCTAT)	n

Hello, I need to know if GGGGTTCCTTGGGTTCTAACCTGTTGCCT (site GGGGTTCCTAT) has measured recombinant barcode read abundance (log10) not below 0.1. Thanks!
y

The measured values listed here are drawn from the supplement of paper PMC11208160.
